Cited source: patent US20110009351A1

Test Target: F508del CFTR (Homo sapiens, UniProt P13569, DEL508-508)
Construct: expressed in transfected cells; host or cells: HEK293 Griptite cells stably expressing F508del CFTR, transiently transfected with halide-sensitive eYFP
Sequence (P13569 with tags, fused parts or gaps DEL508-508): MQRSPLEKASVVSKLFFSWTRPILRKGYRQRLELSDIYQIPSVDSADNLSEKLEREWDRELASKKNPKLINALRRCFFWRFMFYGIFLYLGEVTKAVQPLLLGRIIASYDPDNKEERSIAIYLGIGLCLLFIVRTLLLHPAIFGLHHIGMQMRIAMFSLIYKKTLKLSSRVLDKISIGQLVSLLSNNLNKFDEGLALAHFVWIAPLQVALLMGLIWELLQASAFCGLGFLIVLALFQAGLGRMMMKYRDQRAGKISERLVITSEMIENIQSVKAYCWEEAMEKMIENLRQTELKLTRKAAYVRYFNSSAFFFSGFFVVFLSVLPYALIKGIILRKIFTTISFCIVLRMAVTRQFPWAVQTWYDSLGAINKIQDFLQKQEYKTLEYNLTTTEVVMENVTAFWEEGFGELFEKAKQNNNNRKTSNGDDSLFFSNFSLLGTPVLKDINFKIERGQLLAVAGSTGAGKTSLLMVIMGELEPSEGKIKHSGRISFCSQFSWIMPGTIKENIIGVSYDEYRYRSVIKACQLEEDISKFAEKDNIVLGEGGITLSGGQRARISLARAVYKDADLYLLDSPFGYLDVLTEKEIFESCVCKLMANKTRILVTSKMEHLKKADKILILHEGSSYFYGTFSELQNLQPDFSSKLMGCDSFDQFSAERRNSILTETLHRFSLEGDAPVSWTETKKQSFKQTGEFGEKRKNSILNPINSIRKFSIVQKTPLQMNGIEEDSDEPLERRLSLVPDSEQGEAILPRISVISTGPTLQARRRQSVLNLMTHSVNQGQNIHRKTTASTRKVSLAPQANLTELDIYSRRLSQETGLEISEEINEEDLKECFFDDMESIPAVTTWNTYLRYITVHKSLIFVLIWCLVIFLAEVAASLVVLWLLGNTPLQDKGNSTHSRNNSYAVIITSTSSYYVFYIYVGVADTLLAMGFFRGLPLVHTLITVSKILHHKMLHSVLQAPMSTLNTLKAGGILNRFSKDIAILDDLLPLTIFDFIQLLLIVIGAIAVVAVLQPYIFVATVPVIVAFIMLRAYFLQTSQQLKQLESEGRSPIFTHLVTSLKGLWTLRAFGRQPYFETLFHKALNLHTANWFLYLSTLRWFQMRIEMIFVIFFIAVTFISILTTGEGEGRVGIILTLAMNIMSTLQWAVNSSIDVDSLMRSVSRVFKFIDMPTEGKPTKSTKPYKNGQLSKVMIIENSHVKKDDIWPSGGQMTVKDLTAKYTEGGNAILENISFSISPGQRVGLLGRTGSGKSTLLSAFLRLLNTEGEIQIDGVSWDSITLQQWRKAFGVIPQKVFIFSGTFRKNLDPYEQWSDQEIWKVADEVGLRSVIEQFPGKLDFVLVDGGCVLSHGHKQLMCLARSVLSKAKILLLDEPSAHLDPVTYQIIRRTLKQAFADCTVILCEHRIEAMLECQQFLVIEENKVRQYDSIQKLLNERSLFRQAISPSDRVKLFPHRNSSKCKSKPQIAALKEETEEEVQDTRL
Measurement Description: YFP fluorescence quenching functional assay (iodide influx), HEK293 cells with F508del CFTR and halide sensitive YFP
Type: cell-based
Run Parameters: HEK293; 10 μM, 24 h; nc = 100% pc = 69.2; read-out: % YFP quench
Counter-ions that a name gives are not always drawn.
Endpoint Name: remaining activity at 10 µM (%)

- Molecule: "CC(=O)c1ccc(S(=O)(=O)NC(=O)NC2CCCCC2)cc1 [Acetohexamide]"
  Endpoint Name: "remaining activity at 10 µM"
  Readout Unit: "%"
  Measured: 88
- Molecule: "O=C1CCC(N2C(=O)c3ccccc3C2=O)C(=O)N1 (centres unmarked) [Thalidomide]"
  Endpoint Name: "remaining activity at 10 µM"
  Readout Unit: "%"
  Measured: 92
- Molecule: "C#CCN(C)CCCOc1ccc(Cl)cc1Cl [Clorgyline hydrochloride]"
  Endpoint Name: "remaining activity at 10 µM"
  Readout Unit: "%"
  Measured: 77
- Molecule: "c1ccc2[nH]c(-c3cscn3)nc2c1"
  Endpoint Name: "remaining activity at 10 µM"
  Readout Unit: "%"
  Measured: 907
- Molecule: "CCN(CC)CC#CCOC(=O)C(O)(c1ccccc1)C1CCCCC1 (centres unmarked) [Oxybutynin chloride]"
  Endpoint Name: "remaining activity at 10 µM"
  Readout Unit: "%"
  Measured: 83
- Molecule: "CCOc1ccc2ccccc2c1C(=O)N[C@@H]1C(=O)N2[C@@H]1SC(C)(C)[C@@H]2C(=O)O [Nafcillin sodium salt monohydrate]"
  Endpoint Name: "remaining activity at 10 µM"
  Readout Unit: "%"
  Measured: 97
- Molecule: "COC1=CC(=O)O[C@@H](/C=C/c2ccccc2)C1"
  Endpoint Name: "remaining activity at 10 µM"
  Readout Unit: "%"
  Measured: 111
- Molecule: "C[C@]12C[C@H](O)[C@H]3[C@@H](CCC4=CC(=O)CC[C@@]43C)[C@@H]1CC[C@@H]2C(=O)CO"
  Endpoint Name: "remaining activity at 10 µM"
  Readout Unit: "%"
  Measured: 90
- Molecule: "Clc1ccc(Cn2c(CN3CCCC3)nc3ccccc32)cc1 [Clemizole hydrochloride]"
  Endpoint Name: "remaining activity at 10 µM"
  Readout Unit: "%"
  Measured: 84
- Molecule: "CC[C@@H](CO)NC(=O)[C@@H]1C=C2c3cccc4[nH]cc(c34)C[C@H]2N(C)C1 [Methylergometrine maleate]"
  Endpoint Name: "remaining activity at 10 µM"
  Readout Unit: "%"
  Measured: 94
- Molecule: "CC(C(=O)O)c1cccc(Oc2ccccc2)c1 (centres unmarked) [Fenoprofen calcium salt dihydrate]"
  Endpoint Name: "remaining activity at 10 µM"
  Readout Unit: "%"
  Measured: 88
- Molecule: "CCCCOc1ccc(OCCCN2CCOCC2)cc1 [Pramoxine hydrochloride]"
  Endpoint Name: "remaining activity at 10 µM"
  Readout Unit: "%"
  Measured: 89
- Molecule: "CC(C)(C(=O)c1cccnc1)c1cccnc1"
  Endpoint Name: "remaining activity at 10 µM"
  Readout Unit: "%"
  Measured: 98
- Molecule: "Nc1ncnc2c1ncn2[C@@H]1O[C@H](COP(=O)(O)O)[C@@H](O)[C@H]1O.O [Adenosine 5′-monophosphate monohydrate]"
  Endpoint Name: "remaining activity at 10 µM"
  Readout Unit: "%"
  Measured: 78
- Molecule: "CC1=CC(=O)C2=C(C)C[C@H](O)[C@@H]3[C@H](OC(=O)[C@H]3C)[C@H]12 [Austricine hydrate]"
  Endpoint Name: "remaining activity at 10 µM"
  Readout Unit: "%"
  Measured: 91
- Molecule: "Nc1ccc(S(=O)(=O)c2ccc(N)cc2)cc1"
  Endpoint Name: "remaining activity at 10 µM"
  Readout Unit: "%"
  Measured: 88
- Molecule: "NC(=O)N/N=C/c1ccc([N+](=O)[O-])o1"
  Endpoint Name: "remaining activity at 10 µM"
  Readout Unit: "%"
  Measured: 94
- Molecule: "Cc1oncc1C(=O)Nc1ccc(C(F)(F)F)cc1 [Leflunomide]"
  Endpoint Name: "remaining activity at 10 µM"
  Readout Unit: "%"
  Measured: 107
- Molecule: "CCn1cc(C(=O)O)c(=O)c2cc(F)c(N3CCNCC3)nc21"
  Endpoint Name: "remaining activity at 10 µM"
  Readout Unit: "%"
  Measured: 84
- Molecule: "Cc1[nH]ccc2c1[nH]c1cc(=O)ccc12 [Harmol hydrochloride dihydrate]"
  Endpoint Name: "remaining activity at 10 µM"
  Readout Unit: "%"
  Measured: 92
